The measurements presented in this section are drawn from paper PMC7180830.

- Tested on: HIV-1 K103N mutant strain
- procedure summary: Anti-HIV assay against K103N mutant strain in MT-4 cells
- Format: cell-based
- experimental conditions: Human immunodeficiency virus 1, MT4, read-out: EC50 K103N
measurement name: pEC50
The value called pEC50 is obtained by taking minus log10 of the concentration in mol/L.

Recorded pEC50 (compound N#Cc1ccc(Nc2nccc(C(C#N)c3ccc(C#N)cc3Cl)n2)cc1 (centres unmarked) ): 5.67

Recorded pEC50 (compound Cc1cc(/C=C/C#N)cc(C)c1Nc1ccnc(Nc2ccc(C#N)cc2)n1 [Rilpivirine, rilpivirine, reference compound] ): 9.00

Recorded pEC50 (compound Cc1cnc(Nc2ccc(C#N)cc2)nc1C(C#N)c1ccc(C#N)cc1 (centres unmarked) ): 5.40

Recorded pEC50 (compound Cc1cc(C#N)ccc1C(C#N)c1ccnc(Nc2ccc(C#N)cc2)n1 (centres unmarked) ): 5.71

Recorded pEC50 (compound Cc1cnc(Nc2ccc(C#N)cc2)nc1C(C#N)c1ccc(C#N)cc1F (centres unmarked) ): 5.97

----------
- target: WT HIV-1 RT (Human immunodeficiency virus type 1 group M subtype B, UniProt P03366)
- Construct: Recombinant wild type p66/p51 HIV-1 RT
- procedure summary: Reverse transcriptase assay (EnzCheck kit, PicoGreen)
- experimental conditions: recombinant wild type p66/p51 HIV-1 RT
What pIC50 was measured for each of the following?
The value called pIC50 is obtained by taking minus log10 of the concentration in mol/L.

Recorded pIC50 (compound Cc1cnc(Nc2ccc(C#N)cc2)nc1C(C#N)c1ccc(C#N)c(Cl)c1C (stereo not drawn) ): 7.15

Recorded pIC50 (compound Cc1cc(C#N)c(Br)cc1C(C#N)c1nc(Nc2ccc(C#N)cc2)ncc1C (stereo not drawn) ): 7.22

Recorded pIC50 (compound Cc1cnc(Nc2ccc(C#N)cc2)nc1C(C#N)c1ccc(C#N)cc1Br (stereo not drawn) ): 7.22

Recorded pIC50 (compound Cc1cnc(Nc2ccc(C#N)cc2)nc1C(C#N)c1ccc(C#N)cc1Cl (stereo not drawn) ): 7.30

Recorded pIC50 (compound Cc1cnc(Nc2ccc(C#N)cc2)nc1C(C#N)c1ccc(C#N)cc1 (stereo not drawn) ): 5.84

Recorded pIC50 (compound Cc1cnc(Nc2ccc(C#N)cc2)nc1C(C#N)c1ccc(C#N)cc1F (stereo not drawn) ): 6.66

----------
- procedure summary: Cytotoxicity in mock-infected MT-4 cells, MTT method
- experimental conditions: human, mock-infected (uninfected) MT-4 cells
What CC50 at 5 days was measured for each of the following?

Recorded CC50 at 5 days (compound Cc1cnc(Nc2ccc(C#N)cc2)nc1C(C#N)c1ccc(C#N)c(Cl)c1C (centres unmarked) ): 8.6 µM

Recorded CC50 at 5 days (compound N#Cc1ccc(Nc2nccc(C(C#N)c3ccc(C#N)cc3F)n2)cc1 (centres unmarked) ): 10.3 µM

Recorded CC50 at 5 days (compound Cc1cnc(Nc2ccc(C#N)cc2)nc1C(C#N)c1ccc(C#N)cc1F (centres unmarked) ): 20.6 µM

Recorded CC50 at 5 days (compound Cc1cc(C#N)ccc1C(C#N)c1ccnc(Nc2ccc(C#N)cc2)n1 (centres unmarked) ): 10.9 µM

Recorded CC50 at 5 days (compound Cc1cc(/C=C/C#N)cc(C)c1Nc1ccnc(Nc2ccc(C#N)cc2)n1 [Rilpivirine, rilpivirine, reference compound] ): 5.9 µM

Recorded CC50 at 5 days (compound Cc1cnc(Nc2ccc(C#N)cc2)nc1C(C#N)c1ccc(C#N)cc1Br (centres unmarked) ): 6.6 µM

Recorded CC50 at 5 days (compound COc1cc(C#N)ccc1C(C#N)c1ccnc(Nc2ccc(C#N)cc2)n1 (centres unmarked) ): 25.8 µM

Recorded CC50 at 5 days (compound Cc1ccnc2c1NC(=O)c1cccnc1N2C1CC1 [Nevirapine, nevirapine, reference compound] ): > 15 µM
